test: Pharmacokinetics of DPB after oral DPB or NaDPB and IV NaDPB in Beagle dogs; format: in vivo; conditions: Beagle, dog, in vivo, iv, 75 mg/kg, IV infusion 75 mg/kg, analyte DPB, read-out: AUC0-36
measure: AUC(0-t)
Could you write the number and then its unit?

INPUT: For O=C1NC(=O)C(c2ccccc2)(c2ccccc2)C(=O)N1.[Na] [NaDPB, sodium 5,5-diphenyl barbiturate] , what is its reported AUC(0-t)?
OUTPUT: 1600 µg·h/mL

###

assay: Pharmacokinetics of DPB after oral DPB or NaDPB and IV NaDPB in Beagle dogs; format: in vivo; settings: dog, in vivo, IV infusion 75 mg/kg, analyte DPB in plasma
measure: Tmax (min)
Only the number, expressed in min, is required.

INPUT: For O=C1NC(=O)C(c2ccccc2)(c2ccccc2)C(=O)N1.[Na] [NaDPB, sodium 5,5-diphenyl barbiturate] , what is its reported Tmax?
OUTPUT: 30

Reference source: patent US8076346B2
